tested on: 521955-158-R2-J5-PDC complex spheroid viability; test: Anticancer human tumor 521955-158-R2-J5-PDC patient-derived pancreatic carcinoma cell line growth inhibition [GQUAD]; conditions: curve of first compound; second compound 0.1 µM;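 further: spheroids exposed to agents for one week before reading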
pIC50: −log10 of the molar value.
The entries below are paired with their reported pIC50.

COMPOUND: C=CCn1c(=O)c2cnc(Nc3ccc(N4CCN(C)CC4)cc3)nc2n1-c1cccc(C(C)(C)O)n1 + CN(C)c1ccc(Nc2c3ccc(NC(=O)CCN4CCCC4)cc3nc3cc(NC(=O)CCN4CCCC4)ccc23)cc1
STUDY_TARGET: 521955-158-R2-J5-PDC complex spheroid viability;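 further: spheroids exposed to agents for one week before reading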
VALUE_COMPARATOR: =
pIC50: 6.68

COMPOUND: CC(=O)O[C@H]1C(=O)[C@@]2(C)[C@H]([C@H](OC(=O)c3ccccc3)[C@]3(O)C[C@H](OC(=O)[C@H](O)[C@@H](NC(=O)c4ccccc4)c4ccccc4)C(C)=C1C3(C)C)[C@]1(OC(C)=O)CO[C@@H]1C[C@@H]2O + Cc1[nH]c2ccc(F)cc2c1-c1nc2c3cccnc3c3ncccc3c2[nH]1
STUDY_TARGET: 521955-158-R2-J5-PDC complex spheroid viability;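 further: spheroids exposed to agents for one week before reading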
VALUE_COMPARATOR: >
pIC50: 7.50
